Subject of test: human α4β2 nAChRs (Homo sapiens, UniProt P17787+P43681)
Construct: expressed in transfected cells
Sequence (P43681 29-627 limits assumed): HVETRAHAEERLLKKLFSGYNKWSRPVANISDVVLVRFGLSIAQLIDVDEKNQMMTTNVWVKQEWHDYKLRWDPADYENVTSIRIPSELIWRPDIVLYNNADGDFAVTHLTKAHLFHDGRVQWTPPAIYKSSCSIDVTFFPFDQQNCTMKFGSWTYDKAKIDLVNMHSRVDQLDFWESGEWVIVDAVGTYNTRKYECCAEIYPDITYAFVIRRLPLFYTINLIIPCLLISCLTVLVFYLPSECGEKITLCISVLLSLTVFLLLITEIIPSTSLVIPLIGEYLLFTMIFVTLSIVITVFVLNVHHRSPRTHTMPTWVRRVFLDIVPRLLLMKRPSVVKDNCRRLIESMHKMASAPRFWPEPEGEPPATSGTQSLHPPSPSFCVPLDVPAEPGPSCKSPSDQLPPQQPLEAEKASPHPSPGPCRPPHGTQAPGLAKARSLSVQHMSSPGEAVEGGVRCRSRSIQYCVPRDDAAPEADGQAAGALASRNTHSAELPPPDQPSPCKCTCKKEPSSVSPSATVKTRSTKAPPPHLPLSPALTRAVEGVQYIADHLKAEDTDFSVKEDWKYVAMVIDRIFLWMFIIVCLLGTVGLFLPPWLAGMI
Sequence (P17787 26-502): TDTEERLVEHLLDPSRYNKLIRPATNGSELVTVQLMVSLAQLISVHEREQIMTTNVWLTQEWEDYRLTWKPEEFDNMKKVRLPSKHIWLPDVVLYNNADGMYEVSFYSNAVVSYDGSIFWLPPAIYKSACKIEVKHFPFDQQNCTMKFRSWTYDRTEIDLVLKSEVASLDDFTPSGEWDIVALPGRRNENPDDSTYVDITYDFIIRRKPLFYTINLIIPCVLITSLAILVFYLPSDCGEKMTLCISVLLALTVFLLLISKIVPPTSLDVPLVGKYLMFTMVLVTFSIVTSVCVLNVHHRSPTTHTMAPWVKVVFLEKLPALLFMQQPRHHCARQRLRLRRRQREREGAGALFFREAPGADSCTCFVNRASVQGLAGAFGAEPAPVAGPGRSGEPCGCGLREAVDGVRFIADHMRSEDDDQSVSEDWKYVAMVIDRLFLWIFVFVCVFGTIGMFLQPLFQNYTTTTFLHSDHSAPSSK
Experiment: cell-based
Type: cell-based
Measurement conditions: read-out: Inhibition IC50; with 10 μM nicotine; steady state fractional current, −80 mV
Quantity measured: IC50

Form entry - test system: human α4β2 nAChRs (Homo sapiens, UniProt P17787+P43681); read-out: IC50; molecule: CN(CCCC(=O)c1cccnc1)N=O
> 100 µM

* * *

Subject of test: human α4β2 nAChRs (Homo sapiens, UniProt P17787+P43681)
Construct: expressed in transfected cells
Experiment: cell-based
Type: cell-based
Measurement conditions: with 10 μM nicotine; steady state fractional current, −80 mV; read-out: Inhibition IC50
Quantity measured: pIC50
By convention, pIC50 is the negative base-10 log of a molar concentration.

Form entry - test system: human α4β2 nAChRs (Homo sapiens, UniProt P17787+P43681); read-out: pIC50; compound: O=NN1CCC[C@H]1c1cccnc1
9.68

* * *

Subject of test: human α4β2 nAChRs (Homo sapiens, UniProt P17787+P43681)
Construct: expressed in transfected cells
Experiment: cell-based
Type: cell-based
Measurement conditions: read-out: EC50 (single-term Hill, Equation 1); peak whole-cell currents at −80 mV; activation by agonist alone
Quantity measured: pEC50
By convention, pEC50 is the negative base-10 log of a molar concentration.

Given CN(CCCC(=O)c1cccnc1)N=O , state its recorded pEC50.
4.78

* * *

Subject of test: human α4β2 nAChRs (Homo sapiens, UniProt P17787+P43681)
Construct: expressed in transfected cells
Experiment: cell-based
Assay type: cell-based
Measurement conditions: read-out: Desensitization IC50; fractional steady state current ISS/Ipeak vs agonist concentration, Equation 3
Quantity measured: IC50 (nM)
Provide the reading as a plain figure in nM.

Form entry - test system: human α4β2 nAChRs (Homo sapiens, UniProt P17787+P43681); read-out: IC50; compound: CN(CCCC(=O)c1cccnc1)N=O [NNK]
1700

* * *

Subject of test: human α4β2 nAChRs (Homo sapiens, UniProt P17787+P43681)
Construct: expressed in transfected cells
Experiment: cell-based
Assay type: cell-based
Measurement conditions: read-out: EC50high; high-affinity component, two-terms Hill fit (Equation 2)
Quantity measured: pEC50
By convention, pEC50 is the negative base-10 log of a molar concentration.

Given CN(CCCC(=O)c1cccnc1)N=O [NNK] , state its recorded pEC50.
7.46

* * *

Subject of test: human α4β2 nAChRs (Homo sapiens, UniProt P17787+P43681)
Construct: expressed in transfected cells
Experiment: cell-based
Assay type: cell-based
Measurement conditions: read-out: Inhibition IC50
Quantity measured: IC50

Given O=NN1CCC[C@H]1c1cccnc1 , state its recorded IC50.
~1 nM

* * *

Subject of test: human α4β2 nAChRs (Homo sapiens, UniProt P17787+P43681)
Construct: expressed in transfected cells
Experiment: cell-based
Format: cell-based
Measurement conditions: read-out: EC50low; low-affinity component, two-terms Hill fit (Equation 2)
Quantity measured: EC50 (µM)
Provide the reading as a plain figure in µM.

Given CN(CCCC(=O)c1cccnc1)N=O , state its recorded EC50.
12.8
